Listing of recorded clearance by entry.
Test: Clearance in mouse
Format: ADME, organism-based
Settings: in vivo
Give your result as the value with the unit written after it.

C[C@@H]1CC(c2cnc3c(C#N)nn([C@H](C)c4ccc(Cl)cc4Cl)c3n2)=CC[C@@H]1N1CCC[C@H]1C :: 1.17 mL/min/kg

Consider the additional compound presented here.
# query: clearance of entry C[C@@H]1CC(c2cnc3c(C#N)nn([C@H](C)c4ccc(Cl)cc4Cl)c3n2)=CC[C@@H]1N1CCC[C@H]1CO
12 mL/min/kg

----------
Parameter IC50: see the listing below.
Molecular target: C-C chemokine receptor type 4 (Homo sapiens)
Sequence (P51679 whole entry): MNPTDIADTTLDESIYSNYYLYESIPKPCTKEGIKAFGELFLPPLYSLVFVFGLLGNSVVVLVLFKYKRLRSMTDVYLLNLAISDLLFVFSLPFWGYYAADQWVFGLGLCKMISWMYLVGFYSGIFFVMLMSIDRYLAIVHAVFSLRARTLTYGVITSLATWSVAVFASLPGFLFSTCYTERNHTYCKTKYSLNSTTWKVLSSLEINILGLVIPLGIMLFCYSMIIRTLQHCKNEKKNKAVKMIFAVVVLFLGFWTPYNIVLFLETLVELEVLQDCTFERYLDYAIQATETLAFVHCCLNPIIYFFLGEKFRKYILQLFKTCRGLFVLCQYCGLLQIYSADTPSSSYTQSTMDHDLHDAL
Experiment: Antagonist activity at human CCR4 expressed in rat chem-5 cells assessed as inhibition of CCL22-induced calcium flux measured at 2.5 secs time interval for 45 secs by fluorescence assay
Entry rule: numbers only, all in nM.

Worked cases, IC50 given:
C[C@@H]1CC(c2cnc3c(C#N)nn([C@H](C)c4ccc(Cl)cc4Cl)c3n2)=CC[C@@H]1N1CCC[C@H]1CO :: 40
Cc1nn([C@H](C)c2ccc(Cl)cc2Cl)c2nc(N3CC[C@H](N4CCC[C@H]4CCS(N)(=O)=O)[C@H](C)C3)cnc12 :: 32
CC1CN(c2cnc3c(C(N)=O)nn(C(C)c4ccc(Cl)cc4Cl)c3n2)CCC1N1CCCCC1 (centres undefined) :: 228

Consider the additional compound presented here.
Under C-C chemokine receptor type 4 (Homo sapiens): IC50 value of CC1CN(c2cnc3c(C(F)(F)F)nn(C(C)c4ccc(Cl)cc4Cl)c3n2)CCC1N1CCCCC1 (centres undefined) ?
837
